All figures here come from patent US7989464B2.

Biological target: hmGluR1 receptor (Homo sapiens, UniProt Q13255)
Construct: expressed in transfected cells
Sequence (Q13255 19-1194): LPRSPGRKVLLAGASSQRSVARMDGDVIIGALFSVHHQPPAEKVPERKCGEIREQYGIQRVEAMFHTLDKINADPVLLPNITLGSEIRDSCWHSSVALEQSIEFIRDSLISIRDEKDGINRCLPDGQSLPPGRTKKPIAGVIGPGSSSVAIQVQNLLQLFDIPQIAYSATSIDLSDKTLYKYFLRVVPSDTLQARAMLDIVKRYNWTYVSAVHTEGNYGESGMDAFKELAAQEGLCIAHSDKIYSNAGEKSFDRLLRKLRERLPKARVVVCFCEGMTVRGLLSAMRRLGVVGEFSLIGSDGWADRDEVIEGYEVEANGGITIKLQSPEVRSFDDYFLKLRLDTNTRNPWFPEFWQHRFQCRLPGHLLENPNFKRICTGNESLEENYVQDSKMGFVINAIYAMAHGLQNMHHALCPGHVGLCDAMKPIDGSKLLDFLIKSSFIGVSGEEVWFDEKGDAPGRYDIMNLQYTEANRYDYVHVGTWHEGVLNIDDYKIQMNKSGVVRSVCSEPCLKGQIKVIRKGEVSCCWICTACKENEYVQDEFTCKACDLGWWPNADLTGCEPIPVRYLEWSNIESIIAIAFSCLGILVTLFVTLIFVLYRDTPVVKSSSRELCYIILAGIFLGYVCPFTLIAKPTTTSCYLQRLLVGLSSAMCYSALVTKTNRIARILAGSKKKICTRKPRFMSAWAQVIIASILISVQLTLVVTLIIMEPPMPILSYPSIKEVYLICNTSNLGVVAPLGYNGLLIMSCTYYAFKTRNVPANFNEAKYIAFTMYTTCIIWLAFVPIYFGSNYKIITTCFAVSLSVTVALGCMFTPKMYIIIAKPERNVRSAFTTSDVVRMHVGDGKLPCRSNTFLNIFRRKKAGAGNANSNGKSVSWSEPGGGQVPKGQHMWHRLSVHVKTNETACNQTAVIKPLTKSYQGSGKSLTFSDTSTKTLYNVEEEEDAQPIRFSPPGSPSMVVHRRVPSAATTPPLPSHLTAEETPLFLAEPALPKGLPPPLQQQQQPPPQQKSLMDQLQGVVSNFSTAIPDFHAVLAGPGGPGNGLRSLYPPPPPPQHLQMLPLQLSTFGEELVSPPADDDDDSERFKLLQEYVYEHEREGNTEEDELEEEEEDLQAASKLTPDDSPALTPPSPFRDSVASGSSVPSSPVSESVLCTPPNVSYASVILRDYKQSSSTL
Test: IC50 determination: intracellular calcium mobilization (FLIPR) upon Quisqualate stimulation in CHO cells stably expressing hmGluR1
Format: cell-based
Details: against Quisqualate 1 μM (EC80), FLIPR calcium mobilization, read-out: IC50 Class
readout-label: IC50

| molecule | test-value |
| --- | --- |
| COc1ccc(-n2cnc3c(sc4nccc(NC5CC5)c43)c2=O)cc1Cl [131K] | > 1000 nM |
| CCN(C)c1ccnc2sc3c(=O)n(-c4ccc5c(c4)CCO5)cnc3c12 [28CH] | < 50 nM |
| O=c1c2sc3nccc(N4CCC[C@@H]4CO)c3c2ncn1-c1ccc(Cl)cc1 [28GI] | > 1000 nM |
| C=C(C)CNc1ncnc2sc3c(=O)n(-c4cccc(Cl)c4)cnc3c12 [95FK] | 50 to 150 nM |
| CCNc1ccnc2sc3c(=O)n(-c4cccc(Cl)c4)cnc3c12 [28CD] | < 50 nM |
| CNc1c(Br)cnc2sc3c(=O)n(-c4ccc(Cl)cc4)cnc3c12 [compound 188] | < 50 nM |
| CSCCNc1ccnc2sc3c(=O)n(-c4ccc(C)cc4)cnc3c12 [28EV] | < 50 nM |
| CN(C)c1ccnc2sc3c(=O)n(-c4ccncc4)cnc3c12 [28EE] | 150 to 1000 nM |

====

Molecular target: hmGluR1 receptor (Homo sapiens, UniProt Q13255)
Construct: expressed in transfected cells
Assay: IC50 determination: intracellular calcium mobilization (FLIPR) upon Quisqualate stimulation in CHO cells stably expressing hmGluR1
Assay type: cell-based
Settings: against Quisqualate 1 μM (EC80), FLIPR calcium mobilization, read-out: IC50 Class

| compound | IC50 |
| --- | --- |
| Cc1ccc(-n2cnc3c(sc4nc(C5CC5)nc(N)c43)c2=O)cc1 [71D] | 150 to 1000 nM |
| CCNc1ncnc2sc3c(=O)n(-c4ccc(OC)cc4F)cnc3c12 [95BE] | 50 to 150 nM |
| O=c1c2sc3ncnc(NC4CC4)c3c2ncn1-c1ccc2scnc2c1 [95BA] | < 50 nM |
| C=Cc1ccnc2sc3c(=O)n(-c4ccc(Cl)cc4)cnc3c12 [29E] | < 50 nM |
| C#CCNc1ncnc2sc3c(=O)n(-c4ccc5c(c4)OCCO5)cnc3c12 [95EN] | 50 to 150 nM |
| C=C(C)CNc1ccnc2sc3c(=O)n(-c4ccc(OC)cc4)cnc3c12 [28FB] | < 50 nM |
| Cc1ccc(-n2cnc3c(sc4cnnc(NC5CC5)c43)c2=O)cc1 [167A] | 150 to 1000 nM |
| CN(C)c1ccnc2sc3c(=O)n(C4CCCC(C(=O)O)C4)cnc3c12 (stereo not drawn) [28EJ] | > 1000 nM |
| O=c1c2sc3nccc(NC4CC4)c3c2ncn1-c1ccc2scnc2c1 [131J] | < 50 nM |

====

# pIC50 listing for each entry below
Molecular target: hmGluR1 receptor (Homo sapiens, UniProt Q13255)
Construct: expressed in transfected cells
Test: IC50 determination: intracellular calcium mobilization (FLIPR) upon Quisqualate stimulation in CHO cells stably expressing hmGluR1
Assay type: cell-based
Conditions: against Quisqualate 1 μM (EC80), class symbols, read-out: mGIuR 1 IC50
pIC50: −log10 of the molar value.

| molecule | pIC50 |
| --- | --- |
| CC#CCNc1ccnc2sc3c(=O)n(-c4ccc(C)cc4)cnc3c12 [28AD] | 6.82 to 7.30 |
| Cc1noc(-n2cnc3c(sc4nccc(N(C)C)c43)c2=O)c1C [15AD] | 6.82 to 7.30 |
| COc1ccc(-n2cnc3c(sc4nc(C)cc(N(C)C)c43)c2=O)cc1 | 6.82 to 7.30 |
| Cc1ccc(-n2c(C)nc3c(sc4nccc(N(C)C)c43)c2=O)cc1 [113A] | > 7.30 |
| CCc1nc2c(sc3nccc(N(C)C)c32)c(=O)n1-c1ccc(C)cc1 [116A] | 6.82 to 7.30 |
| COc1ccc(-n2c(C)nc3c(sc4nccc(N(C)C)c43)c2=O)cc1 [116D] | > 7.30 |
| COCCn1cnc2c(sc3nccc(N(C)C)c32)c1=O [15D] | < 6.00 |
| CCNc1ccnc2sc3c(=O)n(-c4ccc5c(c4)OCO5)cnc3c12 [131E] | > 7.30 |
| CN(C)c1c(C#N)cnc2sc3c(=O)n(C4CCCCC4)cnc3c12 | > 7.30 |
| Cc1ccc(-n2c(C)nc3c(sc4nccc(NC5CC5)c43)c2=O)cc1 [113J] | 6.00 to 6.82 |
| CC(C)Oc1ccc(-n2cnc3c(sc4nccc(N(C)C)c43)c2=O)cc1 | < 6.00 |
| Cc1ccc(-n2cnc3c(sc4ncnc(N(C)C)c43)c2=O)cn1 [95O] | > 7.30 |
| COc1cc(Cl)nc2sc3c(=O)n(C4CCCCC4)cnc3c12 | < 6.00 |
| CNc1c(Br)cnc2sc3c(=O)n(-c4ccc(OC)cc4)cnc3c12 | > 7.30 |
| CCNc1ccnc2sc3c(=O)n(-c4ccc(CC)cc4)cnc3c12 [131F] | 6.82 to 7.30 |
| O=c1c2sc3nccc(NCC4CC4)c3c2ncn1C1CCCCC1 [28AJ] | 6.00 to 6.82 |
| O=c1c2sc3nccc(N4CCNCC4)c3c2ncn1C1CCCCC1 [28U] | < 6.00 |
| CN(C)c1ccnc2sc3c(=O)n(N4CC5CCCC5C4)cnc3c12 (stereo not shown) [60E] | > 7.30 |
| O=C(Nc1ccnc2sc3c(=O)n(C4CCCCC4)cnc3c12)c1ccco1 [73E] | < 6.00 |
| CC#CCOc1ccnc2sc3c(=O)n(-c4ccc(C)cc4)cnc3c12 [66B] | < 6.00 |
| COc1ccc(-n2cnc3c(sc4nccc(N(C)C)c43)c2=O)cc1OC | < 6.00 |
| CCN(C)c1ccnc2sc3c(=O)n(-c4ccccc4)c(C)nc3c12 [113D] | > 7.30 |
| COc1ccccc1-n1cnc2c(sc3nc(N4CCOCC4)c4c(c32)CC(C)(C)OC4)c1=O | 6.00 to 6.82 |
| CCN(C)c1ncnc2sc3c(=O)n(-c4ccc(OC(F)F)cc4)cnc3c12 [95T] | > 7.30 |
| COc1ccnc2sc3c(=O)n(-c4ccc(C)cc4)cnc3c12 [25C] | 6.82 to 7.30 |
| Cc1cc(F)cc(-n2cnc3c(sc4nccc(N(C)C)c43)c2=O)c1 | > 7.30 |
| CCCn1cnc2c(sc3nccc(N(C)C)c32)c1=O [15L] | < 6.00 |
| COc1ccc(-n2cnc3c(sc4nccc(Nc5ccccc5)c43)c2=O)cc1 [28G] | 6.00 to 6.82 |
